Biological target: Ephrin type-A receptor 4 (Mus musculus) (UniProt Q03137)
Sequence (Q03137 whole entry, looked up): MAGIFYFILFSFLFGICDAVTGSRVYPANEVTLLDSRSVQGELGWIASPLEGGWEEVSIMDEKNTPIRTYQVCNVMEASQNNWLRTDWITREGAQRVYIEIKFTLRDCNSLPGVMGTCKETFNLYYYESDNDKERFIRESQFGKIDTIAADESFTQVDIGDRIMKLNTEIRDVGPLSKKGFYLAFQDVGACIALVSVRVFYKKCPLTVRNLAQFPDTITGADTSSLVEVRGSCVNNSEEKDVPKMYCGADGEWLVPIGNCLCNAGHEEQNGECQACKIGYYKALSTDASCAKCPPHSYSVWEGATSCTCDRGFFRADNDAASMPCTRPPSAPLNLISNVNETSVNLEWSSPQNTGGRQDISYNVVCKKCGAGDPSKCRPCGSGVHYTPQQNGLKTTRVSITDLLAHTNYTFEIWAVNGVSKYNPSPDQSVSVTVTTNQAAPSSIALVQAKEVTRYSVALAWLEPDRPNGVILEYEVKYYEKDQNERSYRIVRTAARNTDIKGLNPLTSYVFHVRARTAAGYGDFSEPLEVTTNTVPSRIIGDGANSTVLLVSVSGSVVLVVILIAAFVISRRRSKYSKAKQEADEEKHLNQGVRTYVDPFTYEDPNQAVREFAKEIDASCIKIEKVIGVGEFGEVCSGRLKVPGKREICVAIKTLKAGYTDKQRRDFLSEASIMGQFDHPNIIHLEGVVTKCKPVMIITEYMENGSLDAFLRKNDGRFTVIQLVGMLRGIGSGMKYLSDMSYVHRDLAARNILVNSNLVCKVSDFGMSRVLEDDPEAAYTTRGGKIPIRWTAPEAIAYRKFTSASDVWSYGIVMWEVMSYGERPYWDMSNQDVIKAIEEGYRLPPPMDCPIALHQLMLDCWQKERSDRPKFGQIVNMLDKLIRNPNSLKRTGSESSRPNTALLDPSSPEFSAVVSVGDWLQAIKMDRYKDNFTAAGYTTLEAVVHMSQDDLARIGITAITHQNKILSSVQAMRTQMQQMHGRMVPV
Test: inhibitors of EphA4 binding to KYL peptide, primary screen, biochemical, colorimetric, mouse EphA4 (AID 689)
Conditions: EphA4-AP binding to KYL peptide, pNPP A405, at 10 µM, stronger effect = higher value
Screen size: about 62,000 compounds; about 80 (0.1%) were called active. The list is a sample of the results. Measured potencies and affinities stand elsewhere.
Property: inhibition (%)
Form entry: value (%) — number only.

[
  {
    "Molecular string": "COCCN(Cc1cc2cc3c(cc2nc1Cl)OCO3)C(=O)Nc1ccccc1OC",
    "Target": "Ephrin type-A receptor 4 (Mus musculus) (UniProt Q03137)",
    "Unit name": "%",
    "Endpoint result": -13.8
  }
]

Exercise: Given the entry CCOC(=O)c1c(NC(C)=O)sc2c1CCCNC2=O , report its measured inhibition.
Key: 12.2

Exercise: For CC1=N/C(=C\c2ccc([N+](=O)[O-])cc2)C(=O)N1c1ccc(Br)c(C)c1 then?
Key: 40.9

Exercise: Moving on to the next molecule: CCCCC(=O)Nc1sc2c(c1C(=O)OCC)CCC(C=O)=C2Cl
Key: -6.4

Exercise: Now consider CC(=O)NCCNC(=O)[C@H](Cc1ccccc1)NC(=O)c1cccs1 and answer again.
Key: -9

Exercise: Param item: COc1cc2[nH]c3c(N4CCC(C(N)=O)CC4)ncnc3c2cc1OC
Key: -14.4

The values you see were collected from PubChem BioAssay AID689.
